# Assay System: T1, DDX21Core (human, UniProt Q9NR30 186-564)
# T1 sequence: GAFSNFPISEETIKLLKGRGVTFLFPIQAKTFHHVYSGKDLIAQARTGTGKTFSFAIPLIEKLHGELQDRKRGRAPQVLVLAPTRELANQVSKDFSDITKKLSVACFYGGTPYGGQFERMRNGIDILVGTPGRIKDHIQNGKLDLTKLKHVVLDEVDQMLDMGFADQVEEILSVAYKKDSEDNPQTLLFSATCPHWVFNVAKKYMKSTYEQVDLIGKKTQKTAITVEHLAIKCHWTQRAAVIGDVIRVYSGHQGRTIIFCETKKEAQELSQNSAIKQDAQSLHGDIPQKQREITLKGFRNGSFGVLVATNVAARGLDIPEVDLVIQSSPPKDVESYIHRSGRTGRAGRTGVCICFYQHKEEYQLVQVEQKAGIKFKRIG
# Assay Method Text: fluorescence polarization; FP: 50 mM Tris pH 7.5, 50 mM KCl, 5 mM MgCl2, no ATP; Hill-slope fit; temperature not given in the material
# Applied Conditions: protein: recombinant; label: 5'-FAM; single strand
Outcome Measure: pKd
pKd is defined as minus the log10 of a concentration measured in mol/L.

response.value for GUUUCGGAUCGACGC (ssRNA) [15-mer ssRNA] (field: pKd) = 5.82
